The origin of these recorded values is patent US20250230155A1.

assayedTarget: human mAChR M4 (Homo sapiens)
Construct: expressed in transfected cells
assayText: mAChR M4 cell-based functional assay (calcium mobilization, CHO-K1 hM4-Gqi5 cells)
conditionInfo: positive allosteric modulator activity, increase in the EC20 acetylcholine response, CHO-K1 hM4-Gqi5 cells; read-out: Human M4 EC50
valueKind: EC50 (nM)

- Cc1c(Cl)nc(C2CC2)nc1N1CCc2ncc(Nc3cccc(F)c3F)cc2C1: 5570
- Cc1cc(C(=O)NCc2cncc(Br)c2)cnc1N1CCc2ncccc2C1: 1360
- COCc1nc(Cl)c(C)c(N2CCc3ncc(-c4cn(C)nc4C)cc3C2)n1: 864

I: Cc1cc(C(=O)N2CCc3cnccc3C2)nnc1N1CCc2ncc(C(F)(F)F)cc2C1
II: O=C1c2cc(Br)c(N3CCc4ncc(C(F)(F)F)cc4C3)nc2OCCN1Cc1ccccc1
Prompt: # returns the entry with the larger EC50; inputs I and II Output the label that corresponds to your choice.
Response: I
(I: 3170 nM, II: 1990 nM)

a: Cc1cc(C(=O)NCC(C)C)cnc1N1CCc2ncc(-c3cn(C)nc3C)cc2C1
b: [2H]C1([2H])Cc2ncc(Nc3ccccc3F)cc2C([2H])([2H])N1c1ncc(C#N)cc1C
Prompt: Which has the smaller recorded EC50, a or b ? Output the label that corresponds to your choice.
Response: b
(b: 24 nM, a: 1830 nM)

====

assayedTarget: human mAChR M4 (Homo sapiens, UniProt P08173)
Construct: expressed in transfected cells
Sequence (P08173 whole entry): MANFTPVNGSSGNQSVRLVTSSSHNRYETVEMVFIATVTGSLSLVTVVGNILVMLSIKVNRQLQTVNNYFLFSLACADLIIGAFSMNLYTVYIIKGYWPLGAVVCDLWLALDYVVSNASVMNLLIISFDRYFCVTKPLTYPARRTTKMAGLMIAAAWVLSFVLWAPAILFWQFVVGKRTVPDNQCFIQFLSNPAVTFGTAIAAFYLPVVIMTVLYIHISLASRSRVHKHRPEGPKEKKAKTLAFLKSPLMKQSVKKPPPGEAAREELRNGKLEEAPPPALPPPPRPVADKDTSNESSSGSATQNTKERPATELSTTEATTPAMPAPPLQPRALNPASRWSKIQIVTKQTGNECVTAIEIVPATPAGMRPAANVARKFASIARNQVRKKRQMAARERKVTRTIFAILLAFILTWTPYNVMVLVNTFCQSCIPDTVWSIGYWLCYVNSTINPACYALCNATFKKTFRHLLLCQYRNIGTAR
assayText: mAChR M4 cell-based functional assay (calcium mobilization, CHO-K1 hM4-Gqi5 cells)
conditionInfo: positive allosteric modulator activity, increase in the EC20 acetylcholine response, CHO-K1 hM4-Gqi5 cells; read-out: Human M4 EC50
valueKind: EC50 (nM)

• Cc1c(C#N)nnc(N2CCc3ncc(-c4cnn(CC(C)(C)O)c4)cc3C2)c1C [Example 327] = 1910

I: Cc1cc(C#N)cnc1N1CCc2ncc(-c3cnn(C4CC4)c3)cc2C1 [compound 96]
II: Cc1cc(C(=O)NCc2ccc(C#N)nc2)cnc1N1CCc2ncc(-c3cn(C)nc3C)cc2C1 [Example 456]
III: Cc1ccc(-c2cnc3c(c2)CN(c2nnc(C#N)c(C)c2C)CC3)cn1 [Example 298]
IV: Cc1cnccc1CNC(=O)c1nnc(N2CCc3ncc(C(F)(F)F)cc3C2)c(C)c1C [Example 464]
Prompt: List items by EC50 in falling order. Would you mind listing the labels in the order asked for?
Response: II, III, I, IV

A: [2H]C([2H])(NC(=O)c1cc(C)c(N2CCc3ncc(C(F)(F)F)cc3C2)nn1)c1ccncc1 [Example 505]
B: Cc1ccc(Nc2cnc3c(c2)CN(c2nnc(C#N)c(C)c2C)CC3)c(F)n1 [compound 79]
Prompt: Which has the smaller recorded EC50, A or B ? Output the label that corresponds to your choice.
Response: A

====

assayedTarget: human mAChR M4 (Homo sapiens)
Construct: expressed in transfected cells
assayText: mAChR M4 cell-based functional assay (calcium mobilization, CHO-K1 hM4-Gqi5 cells)
conditionInfo: positive allosteric modulator activity, increase in the EC20 acetylcholine response, CHO-K1 hM4-Gqi5 cells; read-out: Human M4 EC50
pEC50: −log10 of the molar value.
valueKind: pEC50

Would you please look over these solved cases?
• Cc1cnc2c(c1)CN(c1ncc(C(=O)NCc3ccncc3C)cc1C)CC2 [Example 441] = 6.84
• Cc1cc(C#N)cnc1N1CCc2ncc(-c3cnn(-c4ccc(F)cc4)c3)cc2C1 [compound 106] = 5.94

I: COc1ccc(Oc2cnc3c(c2)CN(c2nc(C)nc(Cl)c2C)CC3)cn1 [compound 205]
II: Cc1cc(C(=O)N2CC3(C2)CC(F)(F)C3)nnc1N1CCc2ncc(N3CCO[C@H](C)C3)cc2C1 [Example 574]
Prompt: # returns the entry with the larger pEC50; inputs I and II Output the label that corresponds to your choice.
Response: II
(II: 6.71, I: 5.87)

I: Cc1cc(C#N)cnc1N1CCc2ncc(Nc3cccc(Cl)c3F)cc2C1 [compound 114]
II: Cc1cc(C#N)cnc1N1CCc2ncc(-c3cncs3)cc2C1 [compound 95]
III: Cc1cc(C(=O)NCc2ccncc2)cnc1N1CCc2ncc(-c3cccnc3F)cc2C1 [compound 178]
Prompt: Number of molecules to sort: 3. Sort criterion: pEC50, ascending. Would you mind listing the labels in the order asked for?
Response: I, III, II
(I: 6.01, III: 6.58, II: 7.08)

A: Cc1cc(C(=O)NCc2cccc3cccnc23)cnc1N1CCc2ncccc2C1 [compound 156]
B: Cc1nc(Cl)c(C)c(N2Cc3cc(C(F)(F)F)cnc3C(C)C2)n1 (stereo not drawn) [compound 256]
Prompt: Which has the smaller recorded pEC50, A or B ? Output the label that corresponds to your choice.
Response: A
(A: 5.94, B: 6.18)

I: COCc1nc(Cl)c(C)c(N2CCc3ncc(-c4cncs4)cc3C2)n1 [compound 217]
II: [2H]C1([2H])Cc2ncc(Nc3cccnc3C)cc2C([2H])([2H])N1c1ncc(C#N)cc1C [Example 602]
III: Cc1cc(C#N)nnc1N1Cc2cc(N3CCOCC3)cnc2C(C)C1 (stereo not drawn) [Example 404]
Prompt: List items by pEC50 in falling order. Would you mind listing the labels in the order asked for?
Response: II, I, III
(II: 7.46, I: 6.27, III: 6.05)
